system: Caco-2 cell layer; experiment: Transport of AGE mixture across Caco-2 cell layer (transwell, apical to basolateral); type: in vitro ADME, Human; conditions: cytochalasin D pretreatment; mixture, each AGE 100 μmol/L; 2 h
Marks after values point to notes of the source that are not given here.
measuredEndpoint: percentage of the amount added at the apical side at t = 0: basolateral side

Reported percentage of the amount added at the apical side at t = 0: basolateral side, compound Cc1nc(NCCC[C@H](N)C(=O)O)nc(C)c1O [argpyrimidine] : ____
0.9 ± 0.6 ^a %

Entry N[C@@H](CCCCNC(=O)CO)C(=O)O [GALA, glycolic acid–lysine–amide] please
2.1 ± 0.8 ^a %

Entry CC(NCCCC[C@H](N)C(=O)O)C(=O)O (some centres unmarked) [CEL, N-ε-(carboxyethyl)-lysine] please
1.2 ± 0.6 ^b %

Entry N[C@@H](CCCC[n+]1cccc2[nH]c(NCCC[C@H](N)C(=O)O)nc21)C(=O)O [pentosidine] please
0.7 ± 0.4 ^a %

Entry N[C@@H](CCCCNCC(=O)O)C(=O)O [CML, N-ε-(carboxymethyl)-lysine] please
1.3 ± 0.6 ^a %
